Test system: TAB109
Test: qHTS profiling for inhibitors of Plasmodium falciparum proliferation (AID 504749);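 further: 0% = DMSO vehicle and full inhibition = artemisinin control; nearly all actives have a fitted effect of over 60% in size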
Details: P. falciparum in erythrocytes, SYBR Green DNA, 72 h; series mostly up to 12.8 µM
Results filed as inconclusive are left out. Activity calls are given as the source filed them. The call rests on the fitted dose curve; in most records, active means well fitted inhibition curve with a large enough effect; inconclusive means small, poorly fitted or top-dose-only effect; inactive means flat fitted curve, though single readings scatter.
// allowed return values: 1.0 for active, 0.0 for inactive

MOLECULE: COc1cc2c(cc1OC)[C@@]13CCN4CC5=CCOC6CC(=O)N2C1[C@H]6[C@@H]5C[C@@H]43 (stereo partly drawn)
CLASS: 0.0

**Query** Identify the outcome logged in this assay for the molecule shown: C[C@H](N)[C@@H](O)c1ccccc1
**Result** 0.0

**Query** Outcome? CC(C)(O)C1C2OC(=O)C1[C@]1(O)C[C@H]3O[C@]34C(=O)O[C@H]2[C@]14C (stereo partly drawn) (tested in a mixture with another compound)
**Result** 0.0

**Query** What is the recorded call for this molecule in the test? O=c1ccc2cc(O[C@H]3O[C@@H](CO)[C@@H](O)[C@@H](O)[C@@H]3O)c(O)cc2o1
**Result** 0.0

====

Target: Rap guanine nucleotide exchange factor 3 (Homo sapiens) (UniProt O95398)
Sequence (O95398 whole entry, looked up): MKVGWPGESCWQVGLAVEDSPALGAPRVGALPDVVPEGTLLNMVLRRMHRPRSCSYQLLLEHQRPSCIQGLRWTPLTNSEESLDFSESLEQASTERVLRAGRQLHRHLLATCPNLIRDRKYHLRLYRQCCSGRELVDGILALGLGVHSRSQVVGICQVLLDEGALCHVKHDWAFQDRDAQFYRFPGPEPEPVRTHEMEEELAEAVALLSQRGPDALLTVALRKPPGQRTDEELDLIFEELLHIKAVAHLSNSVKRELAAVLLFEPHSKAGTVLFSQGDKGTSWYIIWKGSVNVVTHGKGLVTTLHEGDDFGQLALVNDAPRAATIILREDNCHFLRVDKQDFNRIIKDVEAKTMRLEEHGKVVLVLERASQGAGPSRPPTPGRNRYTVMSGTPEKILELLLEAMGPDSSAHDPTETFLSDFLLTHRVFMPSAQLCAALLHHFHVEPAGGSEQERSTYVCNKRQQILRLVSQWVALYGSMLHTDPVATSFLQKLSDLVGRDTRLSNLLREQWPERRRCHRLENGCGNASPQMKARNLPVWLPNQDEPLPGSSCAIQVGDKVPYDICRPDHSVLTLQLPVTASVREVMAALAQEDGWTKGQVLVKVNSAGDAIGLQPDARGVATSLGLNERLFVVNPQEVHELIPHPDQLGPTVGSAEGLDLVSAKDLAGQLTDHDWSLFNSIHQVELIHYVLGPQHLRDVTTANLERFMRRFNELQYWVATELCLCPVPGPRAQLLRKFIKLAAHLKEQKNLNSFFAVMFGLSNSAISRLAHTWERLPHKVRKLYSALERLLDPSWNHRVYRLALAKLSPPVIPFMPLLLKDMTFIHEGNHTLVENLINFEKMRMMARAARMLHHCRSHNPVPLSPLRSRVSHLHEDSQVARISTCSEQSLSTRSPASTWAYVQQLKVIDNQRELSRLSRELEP
Experiment: Counterscreen qHTS for antagonist of cAMP-regulated guanine nucleotide exchange factor 3 (EPAC1) (AID 1645888);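 further: fluorescence loss as bound BODIPY-GDP is released from Rap1B; % of control where 0% means no effect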
Details: Rap1B-BODIPY-GDP nucleotide exchange, fluorescence; series mostly up to 154 µM
Records with an inconclusive call do not appear. Calls of active or inactive are those of the source. Calls follow the shape of the dose curve; as a rule, active = well fitted inhibition curve with a large enough effect; inconclusive = small, poorly fitted or top-dose-only effect; inactive = no such curve, though single readings can be large or run the other way.
REPORTED_METRIC: activity change, negative = inhibition

MOLECULE: COCCCn1c(N)c(C(=O)NCCC(C)C)c2nc3ccccc3nc21
TARGET_OF_ASSAY: Rap guanine nucleotide exchange factor 3 (Homo sapiens) (UniProt O95398)
activity change, negative = inhibition: 2.52% [at 30.8 µM] (inactive)

MOLECULE: CCCCN1C(=O)/C(=C/c2ccc(N(C)C)cc2)C(=O)N(Cc2ccco2)C1=O
TARGET_OF_ASSAY: Rap guanine nucleotide exchange factor 3 (Homo sapiens) (UniProt O95398)
activity change, negative = inhibition: 25.6% [at 30.8 µM] (inactive)

MOLECULE: Cc1cccc(N2C(=O)NC(=O)/C(=C\c3cccn3-c3ccc(Cl)cc3)C2=O)c1
TARGET_OF_ASSAY: Rap guanine nucleotide exchange factor 3 (Homo sapiens) (UniProt O95398)
activity change, negative = inhibition: inactive

MOLECULE: Cc1ccc(C)c(Cn2c(C(=O)O)c(C=O)c3ccccc32)c1
TARGET_OF_ASSAY: Rap guanine nucleotide exchange factor 3 (Homo sapiens) (UniProt O95398)
activity change, negative = inhibition: -5.1% [at 30.8 µM] (inactive)

MOLECULE: COP(=O)(/C=C(\Cl)c1ccccc1)/C=C(\Cl)c1ccccc1
TARGET_OF_ASSAY: Rap guanine nucleotide exchange factor 3 (Homo sapiens) (UniProt O95398)
activity change, negative = inhibition: inactive

Please examine the following record next.
Reading of activity change, negative = inhibition for CCCSc1nc2ccccc2c(=O)n1-c1ccccc1OC with Rap guanine nucleotide exchange factor 3 (Homo sapiens) (UniProt O95398): inactive

====

Target: Rap guanine nucleotide exchange factor 3 (Homo sapiens) (UniProt O95398)
Assay: Confirmatory qHTS for antagonist of cAMP-regulated guanine nucleotide exchange factor 3 (EPAC1) (AID 1645880); further: nearly all actives have a fitted effect of over 55% in size
Settings: EPAC1 Rap1B-BODIPY-GDP exchange, fluorescence; series mostly up to 115 µM
Records with an inconclusive call do not appear. The source made the active and inactive calls. Calls follow the shape of the dose curve; as a rule, active = well fitted inhibition curve with a large enough effect; inconclusive = small, poorly fitted or top-dose-only effect; inactive = no such curve, though single readings can be large or run the other way.
Outcome (select one): active, inactive

The examples below pair each entry with its known result.
COMPOUND: O=C1NC(=O)N(Cc2ccc(F)cc2)C(=O)/C1=C\c1ccc([N+](=O)[O-])s1
CLASS: active
//
COMPOUND: CCOC(=O)[C@]12Cc3cc(OC)ccc3[C@H]1N(Cc1ccccc1)C(=O)c1cc(F)c(F)cc12
CLASS: inactive
//
COMPOUND: CC[C@@H]1c2ccccc2[C@@H]2CC[C@H]1N2c1ccccc1
CLASS: inactive
//
COMPOUND: COc1ccccc1-n1c(-c2cccs2)nc2ccccc2c1=O
CLASS: inactive
//
COMPOUND: CCOC(=O)[C@]12Cc3cc(C)ccc3[C@H]1N(Cc1ccccc1)C(=O)c1ccccc12
CLASS: inactive

**Query** Give the logged outcome of this assay for the following compound: Cc1cc(OC(C)C(=O)N[C@H](C(=O)O)c2ccccc2)c2c3c(c(=O)oc2c1)CCC3 (stereo not given in full)
**Result** inactive

**Query** In this assay, the call recorded for COC(=O)N1C(c2ccccc2)C1c1ccccc1 (stereo not given) was what?
**Result** inactive

**Query** For this compound, state the assay outcome: CCCCNC(=O)c1c(N)n(CCCOC)c2nc3ccccc3nc12
**Result** active

**Query** Hi team, can someone confirm the assay call for COC(=O)c1cn(C(=O)c2cccc3ccccc23)c2ccccc12 ?
**Result** inactive

**Query** Would you mind telling me which call this test gave CCN(CC)c1ccc(N=Cc2c(O)n(CCC3=CCCCC3)c(=O)[nH]c2=O)cc1 ?
**Result** active
